# Tgt: Vhr1 (UniProt P40522)
# Sequence: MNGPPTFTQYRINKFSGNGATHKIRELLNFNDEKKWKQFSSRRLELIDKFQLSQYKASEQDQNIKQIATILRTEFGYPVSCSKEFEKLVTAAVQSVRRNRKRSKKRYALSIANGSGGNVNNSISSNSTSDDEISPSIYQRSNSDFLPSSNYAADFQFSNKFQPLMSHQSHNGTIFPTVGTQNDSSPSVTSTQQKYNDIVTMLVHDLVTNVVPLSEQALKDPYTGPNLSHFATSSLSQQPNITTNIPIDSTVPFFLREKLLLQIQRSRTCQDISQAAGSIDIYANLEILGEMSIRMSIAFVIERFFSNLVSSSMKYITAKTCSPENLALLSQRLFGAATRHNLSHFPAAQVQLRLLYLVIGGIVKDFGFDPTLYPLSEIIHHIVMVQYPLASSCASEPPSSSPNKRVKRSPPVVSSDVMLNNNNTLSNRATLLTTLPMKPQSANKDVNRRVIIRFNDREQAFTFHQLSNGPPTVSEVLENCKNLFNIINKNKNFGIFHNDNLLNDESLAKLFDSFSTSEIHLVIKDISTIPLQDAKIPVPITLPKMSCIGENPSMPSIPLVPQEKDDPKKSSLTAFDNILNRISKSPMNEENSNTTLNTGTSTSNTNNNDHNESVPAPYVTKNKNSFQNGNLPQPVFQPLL
# Protocol: PBM E-score (8-mer binding enrichment) (E-score (-0.5 to 0.5)); higher = stronger / more preferred TF binding
# Experimental Setup: protein concentration: 200 nM; construct: GST-full length
Whole data set: some 33,000 sequences, median “E-score (-0.5 to 0.5)” near -0.012, cut for the highest 2% near 0.27. The sample holds the highest values, similar sequences and a random draw of the others, so the mix is not that of the screen.
Category scheme (PBM E-score): bottom range (below -0.09), center range (-0.09 to below 0.02), top range (0.02 or more)

| Query Sequence | Class Name |
| --- | --- |
| TCCCCCCA | bottom range |
| ATGAAGTG | bottom range |
| ATGCCCTC | center range |
| CAATTCTG | center range |
| TACGTTGA | top range |
| ATTCGAGC | center range |
| CGTAATTA | bottom range |
| CAAAGAGA | bottom range |
| AACGCTAC | bottom range |
| TAGTCAAA | top range |
| CTGTATCA | center range |
| ACCGACTC | top range |
| AGTAATCA | top range |
| GGTAATGA | top range |
| AGCATCAG | top range |
| GGATTTGA | center range |
| ACAGCTGG | bottom range |
| CGGTCGAC | top range |
| GAGTCAAC | top range |
| CTCAATCC | center range |
| CACCTACC | bottom range |
| ACACGACA | top range |
| ACACTTAG | center range |
| AGCGCAAT | center range |
| CCTGAGGA | center range |
| CTTGCCCA | bottom range |
| CCCCTACG | bottom range |
| CCAGCTGC | bottom range |
| GTGTATCA | top range |
| ACCGACTG | top range |
